Origin of the recorded values: PubChem BioAssay (NCI)

# System: OVCAR-5 ovarian
# Assay: NCI tumour cell line growth inhibition, 48 h
Measured Property: TGI

CO/N=C\c1cc(O)c(O)c(/C=N/OC)c1	> 100 µM
CC1CN(c2cc3c(cc2F)c(=O)c(C(=O)O)cn3-c2ccc(F)cn2)CC(C)N1 (stereo not given)	> 100 µM
CC(C)(C)c1ccc(OCCOCCOc2ccc(C(C)(C)C)cc2S(=O)(=O)Nc2ccc([N+](=O)[O-])cc2)c(S(=O)(=O)Nc2ccc([N+](=O)[O-])cc2)c1	> 100 µM

Give one value of TGI per listed compound.
1. CN(C)c1ccc(C2CC(c3ccc4ccccc4c3O)=NN2c2ccc([N+](=O)[O-])cc2[N+](=O)[O-])cc1 (stereo not given)
2. CCN(CC)Cc1ccc(C(=S)Nc2ccc(C)cc2)s1
3. NS(=O)(=O)NCCNc1nonc1C(=Nc1ccc(F)c(Br)c1)NO
4. O=C(NC(Cc1cnc[nH]1)C(=O)N1CCCC1)C1CCCC1 (stereo not given)

Resp:
["> 100 µM", "29.5 µM", "> 100 µM", "> 100 µM"]
